Tgt: human ERα (Homo sapiens, UniProt P03372)
Sequence (P03372 311-547): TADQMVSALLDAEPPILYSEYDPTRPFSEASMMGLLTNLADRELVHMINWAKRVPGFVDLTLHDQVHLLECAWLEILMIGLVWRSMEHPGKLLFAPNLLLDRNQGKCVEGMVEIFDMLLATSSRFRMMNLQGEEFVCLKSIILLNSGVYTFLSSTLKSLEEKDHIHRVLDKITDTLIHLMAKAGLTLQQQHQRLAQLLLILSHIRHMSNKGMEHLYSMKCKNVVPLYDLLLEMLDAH
Protocol text: SKBR3 cells transiently transfected with ERα and ER-responsive luciferase reporter
Run conditions: SKBR3 (ERα), luciferase, 24 h; read-out: EC50 (concentration for half-maximal induction)
Measurement type: pEC50
Give bare numbers, as −log10 of the molar value.

Lookup: pEC50 / human ERα (Homo sapiens, UniProt P03372) / O=C(C=Cc1ccc(O)cc1)OC1Cc2c(O)cc(O)cc2OC1c1ccc(O)cc1 (stereo not shown) [rhodoeosein]
5.24

---

Tgt: human ERβ (Homo sapiens)
Construct: human ERβ segment (530 aa, GenBank: AF051427.1)
Sequence (Q92731 whole entry): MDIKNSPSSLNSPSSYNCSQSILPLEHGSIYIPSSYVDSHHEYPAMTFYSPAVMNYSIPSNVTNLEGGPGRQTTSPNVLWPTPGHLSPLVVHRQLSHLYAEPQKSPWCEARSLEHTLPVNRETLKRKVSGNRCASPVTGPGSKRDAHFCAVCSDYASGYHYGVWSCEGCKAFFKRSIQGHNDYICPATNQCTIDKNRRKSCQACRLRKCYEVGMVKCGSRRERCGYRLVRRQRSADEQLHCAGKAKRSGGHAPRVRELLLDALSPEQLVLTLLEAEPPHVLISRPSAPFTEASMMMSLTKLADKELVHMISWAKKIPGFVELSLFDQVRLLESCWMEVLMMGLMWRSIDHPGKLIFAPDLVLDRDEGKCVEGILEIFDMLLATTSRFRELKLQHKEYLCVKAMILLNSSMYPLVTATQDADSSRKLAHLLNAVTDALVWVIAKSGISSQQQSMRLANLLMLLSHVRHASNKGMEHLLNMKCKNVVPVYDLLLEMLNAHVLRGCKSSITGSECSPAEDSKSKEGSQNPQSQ
Protocol text: SKBR3 cells transiently transfected with ERβ and ER-responsive luciferase reporter
Run conditions: SKBR3 (ERβ), luciferase, 24 h; read-out: EC50 (concentration for half-maximal induction)
Measurement type: EC50 (µM)
One number for each entry, in µM.

// returns reported EC50 for input Cc1cc(O)c2c(c1)C(=O)c1cc(O)cc(O)c1C2=O [emodin, reference compound]
3

Where do the numbers come from? From paper PMC3695784.
